Please respond with reported Percent Effect for every item in the list.
# Target Or System: Shiga toxin 2 (Escherichia coli O157:H7) (UniProt P09385+P09386)
# Assay Info: E. coli 0.157:H7 Shiga Toxin SOP - stx2 screening assay
# Format: functional
# Design: scale not given: direction of the effect not stated beside the values
# Measurement Conditions: 30 µM
Output should be the measured figure followed by the unit it is expressed in.

Worked set:
1. Cc1cnc(Nc2nccnc2C2CCN(C)CC2)s1	-20.6%
2. CCC1=N[C@@]2(CC[C@@H]3CN(C(=O)NCc4ccccc4)C[C@@H]32)C(=O)N1	5.39%
3. CCc1n[nH]c(C2CN(C(=O)c3cc4c(s3)CCCC4)CCO2)n1 (stereo unspecified)	4.53%
4. O=C(NCCCn1ccnc1)N1CCCC1c1cccs1 (stereo unspecified)	-5.52%
5. Cn1ccc(C(=O)NC2CCC23CCN(C(=O)N2CCCC2)CC3)c1 (stereo unspecified)	-4.99%

Would you be so kind as to report Percent Effect for each listed record?
1. Cc1cnc2c(c1NCc1ccncc1)c(=O)n(C)c(=O)n2C
2. CCN1CCN(c2ccc(CNC(=O)c3c(C)noc3C)cn2)CC1

["1.78%", "-40.9%"]

----------
# Target Or System: Shiga toxin 2 (Escherichia coli O157:H7) (UniProt P09385+P09386)
# Assay Info: E. coli 0.157:H7 Shiga Toxin SOP - stx2 screening assay
# Type: functional
# Set-up: scale not given: direction of the effect not stated beside the values
# Measurement Conditions: 30 µM
Readout Name: Percent Effect (%)
One number for each entry, in %.

Worked set:
1) Cc1noc(C)c1CN(C)C(=O)NC1CCN(c2ncccn2)CC1	9.61
2) CCCNC(=O)CNc1cc(C(=O)N2CCSCC2)ccc1C	-9.17
3) COc1cc(CNCCc2cnn(C)c2)cc2c1OCCO2	10.4
4) CNS(=O)(=O)Cc1ccc(CNC(=O)c2cccc(C)n2)cc1	-5.04

Would you be so kind as to report Percent Effect for each listed record?
1. CC(C)N1CCc2c(CN(C)Cc3ccco3)cncc2C1
2. OCC1CCCN1c1cc(N2CCC(OC3CCCC3)CC2)ncn1 (stereo not drawn)
3. Cc1noc(Cl)c1CCC(=O)N1CCCCC1Cn1cccn1 (stereo not drawn)
4. CC(=O)N1CCC(c2nccnc2Oc2ccccc2)CC1
5. CC1CCN(CCNC(=O)c2ccccc2N2CCOCC2)CC1
6. Cc1nc(N)cc(C2CN(C(=O)c3ccn(C)n3)CCO2)n1 (stereo not drawn)
7. Cc1cc(C2CCCN(CCc3ccccn3)C2)n[nH]1 (stereo not drawn)

[-0.895, 7.55, -6.37, -5.88, -16.9, 3.51, -1.21]

----------
# Target Or System: Aspartate--tRNA(Asp/Asn) ligase (Mycobacterium tuberculosis (strain ATCC 25618 / H37Rv)) (UniProt P9WFW3); further: in the data most compounds retested in dose-response had high values
# Assay Info: Assay for Asp RNA synthetase-1 from Mycobacterium tuberculosis
# Assay type: functional
# Design: scale not given: direction of the effect not stated beside the values
# Measurement Conditions: 30 µM
Readout Name: Percent Effect
Output should be the measured figure followed by the unit it is expressed in.

1. CC(NC(=O)NCCNc1ncccn1)c1cccs1 (stereo unspecified)	-2.58%

Would you be so kind as to report Percent Effect for each listed record?
1. CC(NC(=O)c1cccs1)C(=O)NCc1cccnc1N1CCCCC1 (stereo unspecified)
2. O=C(CN1CCCC1Cn1cncn1)NCCc1c(F)cccc1F (stereo unspecified)
3. CC(C)Oc1ncc(C(=O)N2CCC(NC(=O)C3CC3)CC2)cc1Cl
4. CSCc1cccc(S(=O)(=O)NCCCn2ccnc2)c1
5. CCN(CC)c1ccc(NS(=O)(=O)c2cncc(F)c2)cn1

1. -3.06%
2. 1.46%
3. -4.56%
4. 11%
5. 1.66%

----------
# Target Or System: Aspartate--tRNA(Asp/Asn) ligase (Mycobacterium tuberculosis (strain ATCC 25618 / H37Rv)) (UniProt P9WFW3); further: in the data most compounds retested in dose-response had high values
# Assay Info: Assay for Asp RNA synthetase-1 from Mycobacterium tuberculosis
# Assay type: functional
# Parameters: scale not given: direction of the effect not stated beside the values
# Measurement Conditions: 30 µM
Readout Name: Percent Effect

Worked set:
1) Cc1ccsc1CNc1cc(N2CCCC2CO)ncn1 (stereo not drawn)	3.04%
2) CC(NC(=O)NCCCn1cccn1)c1cccnc1 (stereo not drawn)	-3.83%
3) CC(C)(C)c1nc(CN2CCCC(Cn3cncn3)C2)cs1 (stereo not drawn)	4.23%
4) CCc1nc(C2CCCN(C(=O)c3cccc4cn[nH]c34)C2)no1 (stereo not drawn)	4.75%
5) CNC(=O)CC1CC2(CCN(Cc3nccs3)CC2)c2ccccc21 (stereo not drawn)	-1.76%

Would you be so kind as to report Percent Effect for each listed record?
1. CO[C@H]1CCN(S(=O)(=O)c2cn(C)cn2)[C@H]1Cc1cnn(C)c1
2. Cc1noc(C)c1CNC(=O)N1CCC(CO)CC1
3. Cc1c[nH]nc1C1CCCCN1C(=O)Cn1cc(Cl)cn1 (stereo not drawn)

7.16%
2.21%
4.25%

Would you be so kind as to report Percent Effect for each listed record?
1. CC(=O)N1CC(=O)N(c2cnn(C)c2)CC12CCN(Cc1ccsc1)C2 (stereo not drawn)
2. O=C(NCc1ccco1)[C@@]12CCO[C@@H]1CCN(CCN1CCCC1)C2

1. 4.83%
2. 1.05%

Would you be so kind as to report Percent Effect for each listed record?
1. OCCC1CN(C2CCC2)CCN1C1CCCC1 (stereo not drawn)
2. CCc1cnc(CN(C)C2CCN(CCc3cccs3)C2)o1 (stereo not drawn)
3. CC(C)c1ccc(C(C)NC(=O)N2CCC(n3cncn3)CC2)cc1 (stereo not drawn)
4. CC(O)CN1CCN(C(=O)c2cc3ccccc3[nH]c2=O)CC1 (stereo not drawn)
5. O=C(CN1CCCCC1Cn1cncn1)NCCC1=CCCCC1 (stereo not drawn)
6. COCC1CC2(CCN(Cc3cnn(C)c3)CC2)CN1c1ncccn1 (stereo not drawn)
7. Cc1cccnc1NC(=O)NCc1ccc(N2CCNC(=O)C2)cc1

1: -1.5%; 2: 2.92%; 3: -0.885%; 4: -2.04%; 5: 2.88%; 6: -0.238%; 7: 5.31%

Would you be so kind as to report Percent Effect for each listed record?
1. Cc1noc(C2CCN(C(=O)c3ccc(N(C)C)nc3)CC2)n1
2. Cc1cnn(C2CCCN(C(=O)c3ccnc(-n4ccnc4)c3)C2)c1 (stereo not drawn)
3. CCn1cc(CN2CCCn3nc(CNC(=O)C4CCC4)cc3C2)cn1
4. Cc1ccc(-c2noc(CN3CCOC(CN(C)C)C3)n2)cc1F (stereo not drawn)
5. CN(CCCC#N)C1CCCN(Cc2noc(C3CC3)n2)C1 (stereo not drawn)
6. NC(=O)C1(CCCc2cccnc2)CCCN(c2ncccn2)C1 (stereo not drawn)
7. CSc1ncccc1C(=O)N1C[C@H]2CC[C@@H]1CN(c1cnccn1)C2

["-4.17%", "3.27%", "4.07%", "3.61%", "-2.54%", "-0.456%", "7.16%"]

----------
Please respond with reported Percent Effect for every item in the list.
# Target Or System: Aspartate--tRNA(Asp/Asn) ligase (Mycobacterium tuberculosis (strain ATCC 25618 / H37Rv)) (UniProt P9WFW3); further: in the data most compounds retested in dose-response had high values
# Sequence (whole entry): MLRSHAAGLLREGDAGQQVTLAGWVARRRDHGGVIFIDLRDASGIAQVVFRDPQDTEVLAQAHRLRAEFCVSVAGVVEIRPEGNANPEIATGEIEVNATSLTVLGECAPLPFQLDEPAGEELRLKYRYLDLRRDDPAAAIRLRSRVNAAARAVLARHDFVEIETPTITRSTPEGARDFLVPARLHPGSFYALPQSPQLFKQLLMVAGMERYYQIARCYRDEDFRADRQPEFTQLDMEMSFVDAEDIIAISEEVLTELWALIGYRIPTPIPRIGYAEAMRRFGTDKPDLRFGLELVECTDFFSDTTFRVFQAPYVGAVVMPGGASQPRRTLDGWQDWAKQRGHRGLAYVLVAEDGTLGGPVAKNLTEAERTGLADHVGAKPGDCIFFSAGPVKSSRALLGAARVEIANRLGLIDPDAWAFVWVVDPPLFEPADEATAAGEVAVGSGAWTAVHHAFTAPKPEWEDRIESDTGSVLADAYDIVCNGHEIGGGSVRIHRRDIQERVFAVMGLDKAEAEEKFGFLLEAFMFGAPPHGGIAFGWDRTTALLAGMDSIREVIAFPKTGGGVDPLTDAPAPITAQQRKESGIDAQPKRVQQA
# Assay Info: Assay for Asp RNA synthetase-1 from Mycobacterium tuberculosis
# Assay type: functional
# Set-up: scale not given: direction of the effect not stated beside the values
# Measurement Conditions: 30 µM
Give bare numbers, in %.

Worked set:
1. O=C(Cc1ccc2c(c1)OCCO2)NC1CCN(CC(F)F)CC1	-1.24
2. c1ccc(-c2nc(CNC3CCc4ncnn4C3)co2)cc1 (stereo unspecified)	-3.79
3. COCCN(C)C[C@@H]1CN(C(=O)c2ccoc2)C[C@@H]1CO	-4.07
4. O=C(c1ccsc1)N1CC[C@H]2C[C@@H](c3nnc(C4CC4)o3)O[C@@H]2C1	0.51
5. Cc1n[nH]cc1CNc1ccc2c(c1)CN(C(=O)OC(C)(C)C)CC2	2.29

Moving on to another compound below.
Give the reported value of Percent Effect for this record: Cc1cccc(C2(CNC(=O)CCNS(C)(=O)=O)CCCC2)c1
-6.94
